- test-summary: inhibitors of firefly luciferase expression or activity, dose response, H4 neuroglioma cells, luminescence (AID 1990)
- Type: functional, cell-based
Calls of active or inactive are those of the source. No stated cut-off is given here; in the data, actives have a measured EC50 and inactives only a lower limit.
property-name: EC50

Reported EC50 of Cc1ccccc1N=Nc1ccc(O)c2ncccc12 : 5.81 µM (active)

Reported EC50 of CN1CCc2c(sc3c2C(=O)NC(c2cn(Cc4ccccc4)c4ccccc24)N3)C1 (centres undefined) : 8.71 µM (active)

Reported EC50 of Cc1c(NC(=O)CCC2CCCCC2)cc(C(=O)N2CCOCC2)cc1[N+](=O)[O-] : > 120 µM (not active)

Reported EC50 of N#Cc1cc(C(=O)c2ccccc2OCC(=O)Nc2ccccc2Cl)cn(C2CCCCC2)c1=O : 22 µM (active)
